Test system: IL-6
Test: Inhibition of LPS-induced IL-6 secretion of THP-1 monocytes (ELISA)
Type: cell-based, human
Settings: Homo sapiens, THP-1; compound 0.5 μM, LPS 500 ng/mL, 24 hours; read-out: THP1/IL6 (% inhib)
Protocol: To evaluate an inhibitory effect on cytokine secretion of monocytes, THP-1 cells (ATCC, #TIB-202) as a human-derived monocyte line were cultured in an RPMI-1640 (Hyclone, SH30027.01) medium supplemented with 10% fetal bovine serum (Hyclone, SH30084.03), 1% penicillin streptomycin (Welgene, LS202-02), and 50 μM 2-mercaptoethanol (Gibco, #21985023). […]
ATTRIBUTE_MEASURED: inhibition at 0.5 µM (%)
// note: answer is a bare numeric in %

Below are worked cases with known answers.
CCNc1nc(Nc2ccc(C(=O)N3CC[C@@H](N4CCOCC4)C3)c3c2OCC3)nc2[nH]cc(C(F)(F)F)c12 [Example 476] ... 47.4
COCCNc1nc(Nc2ccc(C(=O)N3CCC(N4CCOCC4)CC3)c3c2OCCO3)nc2[nH]cc(C(F)(F)F)c12 [Example 366] ... 1.1

Enter reported inhibition at 0.5 µM observed with IL-6 for COCCNc1nc(Nc2ccc(P3(=O)CCN(C4CCOCC4)CC3)cc2OC)nc2[nH]cc(C(F)(F)F)c12 [Example 444]
20

Requested read-out inhibition at 0.5 µM, target or system IL-6, entry C=CCNc1nc(Nc2ccc(S(=O)(=O)N3CCC(N4CCOCC4)CC3)cc2OC)nc2[nH]cc(C#N)c12 [Example 361]
21.7

Checklist item: inhibition at 0.5 µM tested on IL-6, entry CCNc1nc(Nc2ccc(C(=O)N3CCC(N4CCOCC4)CC3)c3c2OCO3)nc2[nH]cc(C(F)(F)F)c12 [Example 213] , value?
32.4

Enter reported inhibition at 0.5 µM observed with IL-6 for CNc1nc(Nc2ccc(S(=O)(=O)N3CCC(N4CCOCC4)CC3)c3c2OCCO3)nc2[nH]cc(C(F)(F)F)c12 [Example 219]
10.9

Test system IL-6; read-out inhibition at 0.5 µM; what value for COCCNc1nc(Nc2ccc(C(=O)N3CCC(N4CCOCC4)CC3)c3c2OCC3)nc2[nH]cc(C#N)c12 [Example 359] ?
32

---

Molecular target: LRRK2 (Homo sapiens)
Sequence (Q5S007 970-2527 limits assumed): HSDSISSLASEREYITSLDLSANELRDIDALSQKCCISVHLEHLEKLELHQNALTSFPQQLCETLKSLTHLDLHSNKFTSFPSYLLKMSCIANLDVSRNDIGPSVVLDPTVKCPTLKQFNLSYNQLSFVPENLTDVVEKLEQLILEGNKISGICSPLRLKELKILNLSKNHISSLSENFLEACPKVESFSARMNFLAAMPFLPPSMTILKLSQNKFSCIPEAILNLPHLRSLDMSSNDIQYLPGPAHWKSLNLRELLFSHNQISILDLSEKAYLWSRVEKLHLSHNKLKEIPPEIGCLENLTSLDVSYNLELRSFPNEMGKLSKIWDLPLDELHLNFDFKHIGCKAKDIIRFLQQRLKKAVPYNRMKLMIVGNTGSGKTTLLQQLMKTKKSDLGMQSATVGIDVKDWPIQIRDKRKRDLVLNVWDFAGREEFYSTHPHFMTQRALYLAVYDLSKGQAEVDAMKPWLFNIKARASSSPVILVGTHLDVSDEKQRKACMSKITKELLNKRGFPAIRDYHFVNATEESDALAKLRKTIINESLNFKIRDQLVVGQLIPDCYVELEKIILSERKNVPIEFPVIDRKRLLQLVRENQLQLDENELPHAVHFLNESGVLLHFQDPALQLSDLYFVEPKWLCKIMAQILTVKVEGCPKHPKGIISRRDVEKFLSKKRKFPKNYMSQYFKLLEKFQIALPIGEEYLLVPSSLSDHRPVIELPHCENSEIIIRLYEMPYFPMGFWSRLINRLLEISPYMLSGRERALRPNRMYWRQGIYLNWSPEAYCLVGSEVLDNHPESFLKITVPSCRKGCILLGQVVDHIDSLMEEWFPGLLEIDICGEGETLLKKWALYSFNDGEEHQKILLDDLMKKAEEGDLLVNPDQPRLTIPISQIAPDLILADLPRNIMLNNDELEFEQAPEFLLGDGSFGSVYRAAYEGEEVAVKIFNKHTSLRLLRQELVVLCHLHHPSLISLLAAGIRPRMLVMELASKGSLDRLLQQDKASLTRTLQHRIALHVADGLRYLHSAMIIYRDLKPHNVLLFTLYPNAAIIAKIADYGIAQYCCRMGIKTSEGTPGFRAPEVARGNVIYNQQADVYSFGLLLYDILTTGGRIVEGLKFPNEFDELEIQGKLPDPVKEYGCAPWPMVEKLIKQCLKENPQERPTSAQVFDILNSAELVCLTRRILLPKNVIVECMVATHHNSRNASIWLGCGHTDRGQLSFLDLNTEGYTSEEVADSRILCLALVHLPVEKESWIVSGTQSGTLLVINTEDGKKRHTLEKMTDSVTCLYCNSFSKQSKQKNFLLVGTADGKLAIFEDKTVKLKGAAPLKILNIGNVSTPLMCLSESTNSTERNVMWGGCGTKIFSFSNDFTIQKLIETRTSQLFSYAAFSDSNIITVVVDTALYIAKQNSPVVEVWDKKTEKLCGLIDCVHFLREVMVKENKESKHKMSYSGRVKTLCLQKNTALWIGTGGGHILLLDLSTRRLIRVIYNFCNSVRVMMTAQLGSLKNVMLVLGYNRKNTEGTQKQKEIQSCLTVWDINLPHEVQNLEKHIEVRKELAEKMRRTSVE
Assay: LRRK2 enzyme inhibition, ADP-Glo kinase assay
Type: biochemical
Set-up: purchased Invitrogen PR8604B
Conditions: ATP 10 μM
Item-by-item account of IC50

Given the entry COc1cc(S(C)(=O)=O)ccc1Nc1nc(NC(C)C)c2c(C(F)(F)F)c[nH]c2n1 [Example 166] , report its measured IC50.
< 100 nM

Report IC50 for CCNc1nc(Nc2ccc(S(C)(=O)=O)cc2OC)nc2[nH]cc(C(F)(F)F)c12 [Example 159] please.
< 100 nM

Find the recorded IC50 belonging to CCCCNc1nc(Nc2ccc(S(=O)(=O)N3CCC(N4CCOCC4)CC3)cc2OC)nc2[nH]cc(C#N)c12 [Example 97] and report it.
< 100 nM

IC50 lookup needed for CNc1nc(Nc2ccc(C(=O)N3CCN(C4COC4)CC3)c3c2OCCO3)nc2[nH]cc(C(F)(F)F)c12 [Example 397] , thanks.
< 100 nM

Which IC50 is listed for CCNc1nc(Nc2ccc(C(=O)N3C[C@@H]4C[C@H]3CO4)c3c2OCCO3)nc2[nH]cc(C(F)(F)F)c12 [Example 409] ?
< 100 nM

Recorded IC50 of COCCNc1nc(Nc2ccc(S(=O)(=O)N3CCC(N4CCOCC4)CC3)cc2OC)nc2[nH]cc(C#N)c12 [Example 87] , please.
< 100 nM

Item N#Cc1c[nH]c2nc(Nc3ccc(C(=O)N4CCC(N5CCOCC5)CC4)c4c3OCC4)nc(NC3CCCCC3)c12 [Example 322] has what recorded IC50?
< 100 nM

Would you mind telling me what IC50 value was observed for COc1cc(S(=O)(=O)N2CCOCC2)ccc1Nc1nc(NC2CCC2)c2c(C(F)(F)F)c[nH]c2n1 [Example 377] ?
101 to 300 nM

Sample CCCNc1nc(Nc2ccc(C(=O)N3CCC(N4CCOCC4)CC3)c3c2OCCO3)nc2[nH]cc(C#N)c12 [Example 138] — what was its IC50?
< 100 nM
